tested on: Streptococcus pyogenes; assay: Minimum inhibitory concentration was evaluated in vitro against Streptococcus pyogenes C 203; format: functional; conditions: Streptococcus pyogenes; read-out: MIC
propertyName: MIC

Use the examples below as a reference point.
Nc1c(F)c(N2CCC(N)C2)c(F)c2c1c(=O)c(C(=O)O)cn2C1CC1 (stereo not drawn)
0.025 µg/mL
CCN[C@H](C)[C@H]1CCN(c2c(F)c(N)c3c(=O)c(C(=O)O)cn(C4CC4)c3c2F)C1 (racemic)
0.003 µg/mL
CCn1cc(C(=O)O)c(=O)c2cc(F)c(N3CCC(N)C3)c(OC)c21 (stereo not drawn)
0.2 µg/mL
CCN[C@@H](C)[C@H]1CCN(c2cc3c(cc2F)c(=O)c(C(=O)O)cn3C2CC2)C1
0.4 µg/mL
C[C@@H](N)[C@@H]1CCN(c2nc3c(cc2F)c(=O)c(C(=O)O)cn3-c2ccc(F)cc2F)C1
0.05 µg/mL
NCC1CCN(c2c(F)c(N)c3c(=O)c(C(=O)O)cn(C4CC4)c3c2F)C1 (stereo not drawn)
0.003 µg/mL
CN[C@H](C)[C@@H]1CCN(c2c(F)c(N)c3c(=O)c(C(=O)O)cn(C4CC4)c3c2F)C1
0.006 µg/mL
CN[C@H](C)[C@@H]1CCN(c2cc3c(cc2F)c(=O)c(C(=O)O)cn3C2CC2)C1
0.05 µg/mL

Field: MIC. Fill in for each record below.
1. CNC(C)C1CCN(c2nc3c(cc2F)c(=O)c(C(=O)O)cn3-c2ccc(F)cc2F)C1 (racemic)
2. CCNCC1CCN(c2c(F)cc3c(=O)c(C(=O)O)cn(C4CC4)c3c2OC)C1 (stereo not drawn)
3. COc1c(N2CCC(CN)C2)c(F)cc2c(=O)c(C(=O)O)cn(C3CC3)c12 (stereo not drawn)
4. CN[C@@H](C)[C@H]1CCN(c2cc3c(cc2F)c(=O)c(C(=O)O)cn3C2CC2)C1
5. NCC1CCN(c2c(F)cc3c(=O)c(C(=O)O)cn(C4CC4)c3c2F)C1 (stereo not drawn)
6. COc1c(N2CC[C@@H]([C@@H](C)N)C2)c(F)cc2c(=O)c(C(=O)O)cn(C3CC3)c12
7. CCNC(C)C1CCN(c2cc3c(c(N)c2F)c(=O)c(C(=O)O)cn3C2CC2)C1 (racemic)

1. 0.05 µg/mL
2. 0.013 µg/mL
3. 0.003 µg/mL
4. 0.4 µg/mL
5. 0.003 µg/mL
6. 0.013 µg/mL
7. 0.013 µg/mL
